# protocol: Drug repurposing screens with cells derived from glioblastoma tumor samples (AID 1345199); note: % is set by controls: 0 for no effect and ±100 for the full control effect; nearly all actives have a fitted effect of over 40% in size
# conditionSummary: GBM patient neurospheres viability, ATP luminescence, 48 h; at 20 µM (top of the series); tumour line C
Records with an inconclusive call do not appear. The source made the active and inactive calls. Calls come from the whole dose curve; as a rule, active = well fitted inhibition curve with a large enough effect; inconclusive = small, poorly fitted or top-dose-only effect; inactive = flat fitted curve, though single readings scatter.
activity, negative = cell killing values for the compounds below.

COc1ccc(C(=O)c2ccccc2O)c(O)c1; -19.6% (inactive)
CCO[C@@H]1O[C@H](C(COCc2ccccc2)OCc2ccccc2)[C@H](OCc2ccccc2)[C@H]1O (stereo not given in full); -1.34% (inactive)
COc1cc(NS(=O)(=O)c2ccc(N)cc2)ncn1; 5.16% (inactive)

Data request: So what's the measured activity, negative = cell killing for this one? CNCCc1ccccn1
Data returned: -4.84% (inactive)

Data request: Let us now turn to CCCCNc1ccc(C(=O)OCCOCCOCCOCCOCCOCCOCCOCCOCCOC)cc1
Data returned: 19.8% (inactive)

---

# System: CP262
# protocol: qHTS profiling for inhibitors of Plasmodium falciparum proliferation (AID 504749); note: nearly all actives have a fitted effect of over 60% in size
# conditionSummary: P. falciparum in erythrocytes, SYBR Green DNA, 72 h; series mostly up to 28.7 µM
Inconclusive results are not listed. Activity calls are given as the source filed them. Calls follow the shape of the dose curve; as a rule, active = well fitted inhibition curve with a large enough effect; inconclusive = small, poorly fitted or top-dose-only effect; inactive = flat fitted curve, though single readings scatter.
Your response should consist of one outcome taken from 1.0 (active), 0.0 (inactive)

Use the examples below as a reference point.
CCOc1cc(OCC)c(C(=O)CCC(=O)O)cc1OCC; 0.0
COc1ccc2c(c1)c1c3n2CCN(C)C3=NCC1; 0.0
CC(=O)Nc1ccc(OCC(O)CNC(C)C)cc1 (stereo unspecified); 0.0
C=C[C@@]1(C)CC(=O)[C@]2(O)[C@@]3(C)[C@@H](O)CCC(C)(C)[C@@H]3[C@H](O)[C@H](OC(C)=O)[C@@]2(C)O1; 0.0
Oc1ccc(Cl)cc1Cc1cc(Cl)ccc1O; 0.0

Now, please, on to the next compound.
Data request: Fill in: this test's call for O=C(Nc1cccc(C2=NCCN2)c1)Nc1cccc(C2=NCCN2)c1 is ___
Data returned: 1.0

---

# protocol: qHTS of pediatric cancer cell lines to identify multiple opportunities for drug repurposing: Confirmatory screen for LAN-5 cells (AID 1347113); note: nearly all actives have a fitted effect of over 65% in size
# conditionSummary: LAN-5 neuroblastoma cell viability; series mostly up to 45.9 µM
# Method: Drug repurposing or repositioning has been offered as a strategy for drug development in oncology programs. […] [1] Shen, M et al. Quantitative high-throughput phenotypic screening of pediatric cancer cell lines identifies multiple opportunities for drug repurposing. […] Cells were assayed in growth media at a density of 500-1,000 cells/well. […] After a 15 min incubation at room temperature, samples were analyzed for luminescence intensity using a ViewLux High-throughput CCD imager equipped with clear filters.
Results filed as inconclusive are left out. Activity calls are given as the source filed them. Calls follow the shape of the dose curve; as a rule, active = well fitted cell-killing curve with a large enough effect; inconclusive = small, poorly fitted or top-dose-only effect, or effect the other way; inactive = no such curve, though single readings can be large or run the other way.
The reply should name one outcome from Yes (active), No (inactive)

CCCCCCCCCCC[C@@H](C[C@@H]1OC(=O)[C@H]1CCCCCC)OC(=O)[C@H](CC(C)C)NC=O; No
C[C@H]1O[C@@H](O[C@H]2CC[C@@]3(C)[C@H](CC[C@@H]4[C@@H]3C[C@@H](O)[C@]3(C)[C@@H](C5=CC(=O)OC5)CC[C@]43O)C2)C[C@H](O)[C@@H]1O[C@H]1C[C@H](O)[C@H](O[C@H]2C[C@H](O)[C@H](O[C@@H]3O[C@H](CO)[C@@H](O)[C@H](O)[C@H]3O)[C@@H](C)O2)[C@@H](C)O1; Yes
O=C(Oc1cccc2cccnc12)c1ccccc1; Yes
CCN(CC)CCOc1ccc2c(c1)C(=O)c1cc(OCCN(CC)CC)ccc1-2; Yes
COc1ccc(C(=O)c2ccccc2)c(O)c1; No
Nc1nc(Cl)nc2c1ncn2[C@@H]1O[C@H](CO)[C@@H](O)[C@@H]1F; Yes

Data request: Which outcome was assigned to CC1CCc2c(N3CCC(O)CC3)c(F)cc3c(=O)c(C(=O)O)cn1c23 (centres undefined) in this test?
Data returned: No

Data request: Try this compound too: O=[N+]([O-])c1ccc(/C=N\O)o1
Data returned: No

Data request: Queued: C=C[C@@]1(C)CC(=O)[C@]2(O)[C@@]3(C)[C@@H](O)CCC(C)(C)[C@@H]3[C@H](O)[C@H](OC(C)=O)[C@@]2(C)O1
Data returned: No

---

# Test system: Tov112D
# protocol: Primary qHTS to identify gynecologic anti-cancer compounds using libraries of approved drugs and bioactive compounds (AID 1345084); note: nearly all actives have a fitted effect of over 55% in size
# conditionSummary: Gynecologic cancer cell panel viability, ATPlite luminescence, 48 h; series mostly up to 57.5 µM
Records with an inconclusive call do not appear. Calls of active or inactive are those of the source. Calls follow the shape of the dose curve; as a rule, active = well fitted cell-killing curve with a large enough effect; inconclusive = small, poorly fitted or top-dose-only effect, or effect the other way; inactive = flat fitted curve, though single readings scatter.
measureName: outcome

These solved cases illustrate the format of a correct answer.
C[C@]12CCC(=O)C=C1C=C[C@@H]1[C@@H]2CC[C@@]2(C)[C@H]1CC[C@@]21CCC(=O)O1; inactive
CCOCCn1c(N2CCCN(C)CC2)nc2ccccc21; inactive
C#C[C@]1(O)CC[C@H]2[C@@H]3CCC4=Cc5oncc5C[C@]4(C)[C@H]3CC[C@@]21C; inactive
COC(=O)C(c1ccccc1Cl)N1CCc2sccc2C1 (stereo unspecified); inactive
NCCNC(=O)c1ccc(Cl)cn1; inactive

Field: next molecule
Data request: Reported outcome for CCOC(=O)[C@@](C)(N)Cc1ccc(O)c(O)c1 : what is it?
Data returned: inactive

---

# System: SKOV3
# protocol: Primary qHTS to identify gynecologic anti-cancer compounds using libraries of approved drugs and bioactive compounds (AID 1345084); note: nearly all actives have a fitted effect of over 55% in size
# conditionSummary: Gynecologic cancer cell panel viability, ATPlite luminescence, 48 h; series mostly up to 57.5 µM
Inconclusive results are not listed. The source made the active and inactive calls. Calls follow the shape of the dose curve; as a rule, active = well fitted cell-killing curve with a large enough effect; inconclusive = small, poorly fitted or top-dose-only effect, or effect the other way; inactive = flat fitted curve, though single readings scatter.
Please answer using one outcome listed in t (active), f (inactive)

Here's what some known entries look like.
Cc1ccc(-c2ncc(Cl)cc2-c2ccc(S(C)(=O)=O)cc2)cn1; f
CCN1/C(=C/C=C/c2sc3ccccc3[n+]2CC)Sc2ccccc21; t
C[N+]1(CC2COC(c3ccccc3)(C3CCCCC3)O2)CCCCC1 (configuration not stated); f

Data request: Could you kindly confirm the outcome this assay logged for COc1ccc(C(=O)c2ccccc2O)c(O)c1 ?
Data returned: f

Data request: Entry CC(C)=CCOc1ccc(/C=C/C(=O)c2ccc(OCC=C(C)C)cc2OCC(=O)O)cc1 please
Data returned: f

Data request: Thanks! And Nc1nc(N)c(-c2ccccc2)s1 ?
Data returned: f

Data request: And for CC(C)n1c(/C=C/[C@@H](O)C[C@@H](O)CC(=O)O)c(-c2ccc(F)cc2)c2ccccc21 ?
Data returned: f

Data request: Please do the same for CCCCCCCCOc1ccc(C(=O)c2ccccc2)c(O)c1 as well.
Data returned: f

Data request: Same read-out for CCCN(CCC)S(=O)(=O)c1ccc(C(=O)O)cc1 ?
Data returned: f

Data request: Try the molecule O=C(O)CCNC(=O)c1ccccc1
Data returned: f

Data request: Ok, now CCN(CC)CCNC(=O)c1cc(Br)c(N)cc1OC
Data returned: f

Data request: Now the molecule CCN1CCCC(OC(=O)C(c2ccccc2)c2ccccc2)C1 (configuration not stated)
Data returned: f

---

# System: OV90
# protocol: Primary qHTS to identify gynecologic anti-cancer compounds using libraries of approved drugs and bioactive compounds (AID 1345084); note: nearly all actives have a fitted effect of over 55% in size
# conditionSummary: Gynecologic cancer cell panel viability, ATPlite luminescence, 48 h; series mostly up to 57.5 µM
Records with an inconclusive call do not appear. Activity calls are given as the source filed them. Calls follow the shape of the dose curve; as a rule, active = well fitted cell-killing curve with a large enough effect; inconclusive = small, poorly fitted or top-dose-only effect, or effect the other way; inactive = flat fitted curve, though single readings scatter.
The reply should be one of these categories: active, inactive

Example results:
CCN1/C(=C/C=C/c2sc3ccccc3[n+]2CC)Sc2ccccc21; active
CC(=O)NC(=O)c1ccccc1O; inactive
CCCCOC(=O)CC(CC(=O)OCCCC)(OC(C)=O)C(=O)OCCCC; inactive
N#CCC(=O)NN; inactive
CN1CCN(c2c(F)cc3c(=O)c(C(=O)O)cn4c3c2SCC4)CC1; inactive
Cc1c[nH]c2ccccc12; inactive
CN(C)CCOC(=O)C(c1ccccc1)C1(O)CCCC1 (centres undefined); inactive
Cc1cccc(C)c1NC(=O)c1ccccc1C(=O)O; inactive

Data request: Any idea what this test logged for C#C[C@]1(O)CC[C@H]2[C@@H]3CCC4=Cc5oncc5C[C@]4(C)[C@H]3CC[C@@]21C ?
Data returned: inactive

Data request: Same read-out for CCCCCCCCCCCCSCCOCCO ?
Data returned: inactive

Data request: For CC(C)Cc1ccc(CC(=O)O)cc1 then?
Data returned: inactive

Data request: Now consider CC(C)Cn1cnc2c1c(=O)n(C)c(=O)n2C .
Data returned: inactive

Data request: Continue with c1ccc(-c2nc[nH]c2-c2ccccc2)cc1
Data returned: inactive

---

# Test system: ATS189
# protocol: qHTS profiling for inhibitors of Plasmodium falciparum proliferation (AID 504749); note: nearly all actives have a fitted effect of over 60% in size; note: potency is the fitted concentration of half-maximal effect
# conditionSummary: P. falciparum in erythrocytes, SYBR Green DNA, 72 h; series mostly up to 28.7 µM
Inconclusive results are not listed. The source made the active and inactive calls. Calls come from the whole dose curve; as a rule, active = well fitted inhibition curve with a large enough effect; inconclusive = small, poorly fitted or top-dose-only effect; inactive = flat fitted curve, though single readings scatter.
measureName: Potency

COc1cc(C(=S)N2CCOCC2)ccc1O; inactive
CC(=O)Nc1ccc(OC(=O)c2ccccc2OC(C)=O)cc1; inactive
COP(=O)(OC)OC(c1ccc(Cl)cc1)P(=O)(OC)OC (stereo unspecified); inactive
CC[C@H](c1ccc(O)cc1)[C@@H](CC)c1ccc(O)cc1; inactive
CCN(CC)CCOc1ccc2c(c1)C(=O)c1cc(OCCN(CC)CC)ccc1-2; 11.2 µM (active)

Here's the next entry for you.
Data request: What value of measured Potency is listed for OCc1ccccn1 ?
Data returned: inactive
